- Tested on: Rattus norvegicus
- experiment notes: In vivo accumulation of DOPA in brain stem of rat brain at a dose of 53 umol/kg.
- Assay type: functional
measured parameter: Control (%)
Give the number; % is assumed, so skip it.

Q: Lab note: record Control of CCCN1CCC[C@H]2Cc3cccc(O)c3C[C@@H]21 tested on Rattus norvegicus.
Result: 117.7

Q: Lab note: record Control of CCCN1CCC[C@@H]2Cc3cccc(O)c3C[C@@H]21 tested on Rattus norvegicus.
Result: 82.3

Q: Lab note: record Control of CCCN1CCC[C@@H]2Cc3cccc(O)c3C[C@H]21 tested on Rattus norvegicus.
Result: 125.1

Q: Lab note: record Control of CCCN1CCC[C@H]2Cc3cccc(O)c3C[C@H]21 tested on Rattus norvegicus.
Result: 126.9

---

- target desc: Dopamine receptor (Rattus norvegicus) (UniProt P25115+P19020+P30729+P18901+P61169)
- experiment notes: In vivo accumulation of DOPA in hemisphere of rat brain at a dose of 53 umol/kg.
- Assay type: functional, organism-based
What Control was measured for each of the following?
Give the number; % is assumed, so skip it.

Q: Answer with reported Control of CCCN1CCC[C@H]2Cc3cccc(O)c3C[C@H]21
Result: 116

Q: Answer with reported Control of CCCN1CCC[C@H]2Cc3cccc(O)c3C[C@@H]21
Result: 98.8

Q: Answer with reported Control of CCCN1CCC[C@@H]2c3c(O)cccc3CC[C@H]21
Result: 117

Q: Answer with reported Control of CCCN1CCC[C@H]2c3c(O)cccc3CC[C@@H]21
Result: 140

Q: Answer with reported Control of CCCN1CCC[C@@H]2Cc3cccc(O)c3C[C@H]21
Result: 97.5

Q: Answer with reported Control of CCCN1CCC[C@@H]2Cc3cccc(O)c3C[C@@H]21
Result: 63

---

What Control was measured for each of the following?
- Tested on: Rattus norvegicus
- experiment notes: In vivo accumulation of DOPA in striatum of rat brain at a dose of 53 umol/kg.
- Assay type: functional
Returns: string containing the numeric result and its unit.

Q: Answer with reported Control of CCCN1CCC[C@@H]2Cc3cccc(O)c3C[C@H]21
Result: 66.1%

Q: Answer with reported Control of CCCN1CCC[C@@H]2Cc3cccc(O)c3C[C@@H]21
Result: 68.3%

Q: Answer with reported Control of CCCN1CCC[C@H]2Cc3cccc(O)c3C[C@H]21
Result: 67.2%

Q: Answer with reported Control of CCCN1CCC[C@H]2Cc3cccc(O)c3C[C@@H]21
Result: 91.4%

---

- Tested on: Rattus norvegicus
- experiment notes: In vivo accumulation of DOPA in hemisphere of rat brain at a dose of 63 umol/kg.
- Assay type: functional
measured parameter: Control (%)
Give the number; % is assumed, so skip it.

Q: Answer with reported Control of Oc1cccc2c1C[C@H]1NCCC[C@@H]1C2
Result: 79

Q: Answer with reported Control of Oc1cccc2c1C[C@H]1NCCC[C@H]1C2
Result: 64.2

Q: Answer with reported Control of Oc1cccc2c1C[C@@H]1NCCC[C@H]1C2
Result: 85.2

Q: Answer with reported Control of Oc1cccc2c1C[C@@H]1NCCC[C@@H]1C2
Result: 70.4

---

- target desc: Serotonin (5-HT) receptor (Rattus norvegicus) (UniProt P35563+P35365+P32305+P31388+Q9JJ16+P28564+P30994+Q62758+P08909+P14842+P30940+P35364+P19327+P28565)
- experiment notes: Dose corresponding to half-maximal decrease of 5-HTP formation in the limbic and striatal parts of rat brain
- Format: functional, tissue-based
What ED50 was measured for each of the following?

Q: Answer with reported ED50 of CCCN(CCC)C1Cc2c(O)cccc2CC1(C)C (racemic)
Result: > 0.05 mg/kg

Q: Answer with reported ED50 of CCCN(CCC)[C@H]1Cc2c(O)cccc2C[C@@H]1C
Result: 0.005 mg/kg

Q: Answer with reported ED50 of CCCN1CCC[C@H]2Cc3cccc(O)c3C[C@H]21
Result: > 0.05 mg/kg

Q: Answer with reported ED50 of CCCN(CCC)[C@@H]1Cc2c(O)cccc2C[C@@H]1C
Result: 0.02 mg/kg

Q: Answer with reported ED50 of CCCN1CCC[C@H]2c3c(O)cccc3CC[C@@H]21
Result: 0.0005 mg/kg

Q: Answer with reported ED50 of CCCN1CCC[C@@H]2Cc3cccc(O)c3C[C@@H]21
Result: > 0.05 mg/kg

Q: Answer with reported ED50 of CCCN(CCC)[C@@H]1C[C@@H]1c1cccc(O)c1
Result: > 0.05 mg/kg

Q: Answer with reported ED50 of CCCN(CCC)[C@H]1Cc2c(O)cccc2C[C@H]1C
Result: > 0.05 mg/kg

Q: Answer with reported ED50 of CCCN(CCC)[C@@H]1CCc2cccc(O)c2[C@H]1C (racemic)
Result: > 0.05 mg/kg

Q: Answer with reported ED50 of CCCN1CCC[C@@H]2Cc3cccc(O)c3C[C@H]21
Result: > 0.05 mg/kg

Q: Answer with reported ED50 of CCCN(CCC)C1(C)CCc2cccc(O)c2C1 (racemic)
Result: > 0.05 mg/kg

Q: Answer with reported ED50 of CCCN1CCC[C@@H]2c3c(O)cccc3CC[C@H]21
Result: 0.0005 mg/kg

---

- target desc: 5-hydroxytryptamine receptor 1A (Rattus norvegicus)
Lab note: compare Ki with 700 nM, writing true if less and false if equal or more.

Q: Please let me know if CCCN(CCC)[C@H]1Cc2c(O)cccc2C[C@H]1C (racemic) shows Ki below 700 nM.
Result: true

Q: Please let me know if CCCN(CCC)[C@@H]1Cc2c(O)cccc2C[C@@H]1C shows Ki below 700 nM.
Result: true

Q: Please let me know if CCCN(CCC)[C@H]1Cc2c(O)cccc2C[C@H]1C shows Ki below 700 nM.
Result: false

Q: Please let me know if CCCN1CCC[C@@H]2Cc3cccc(O)c3C[C@@H]21 shows Ki below 700 nM.
Result: false

Q: Please let me know if CCCN1CCC[C@H]2Cc3cccc(O)c3C[C@H]21 shows Ki below 700 nM.
Result: true

Q: Please let me know if CCCN1CCC[C@H]2c3c(O)cccc3CC[C@@H]21 shows Ki below 700 nM.
Result: true

Q: Please let me know if CCCN(CCC)[C@H]1CCc2cccc(O)c2[C@H]1C shows Ki below 700 nM.
Result: false

---

- System: Rattus norvegicus
- experiment notes: In vivo accumulation of 5-HTP in hemisphere of rat brain at a dose of 63 umol/kg.
- Type: functional
What Control was measured for each of the following?
Returns: string containing the numeric result and its unit.

Q: Answer with reported Control of Oc1cccc2c1C[C@H]1NCCC[C@H]1C2
Result: 101.4%

Q: Answer with reported Control of Oc1cccc2c1C[C@@H]1NCCC[C@H]1C2
Result: 107.8%

Q: Answer with reported Control of Oc1cccc2c1C[C@H]1NCCC[C@@H]1C2
Result: 81.9%

Q: Answer with reported Control of Oc1cccc2c1C[C@@H]1NCCC[C@@H]1C2
Result: 59.7%

---

What Control was measured for each of the following?
- Test system: Rattus norvegicus
- experiment notes: In vivo accumulation of 5-HTP in striatum of rat brain at a dose of 63 umol/kg.
- Type: functional
Give the number; % is assumed, so skip it.

Q: Lab note: record Control of Oc1cccc2c1C[C@H]1NCCC[C@@H]1C2 tested on Rattus norvegicus.
Result: 96.5

Q: Lab note: record Control of Oc1cccc2c1C[C@H]1NCCC[C@H]1C2 tested on Rattus norvegicus.
Result: 108.8

Q: Lab note: record Control of Oc1cccc2c1C[C@@H]1NCCC[C@@H]1C2 tested on Rattus norvegicus.
Result: 102.7

Q: Lab note: record Control of Oc1cccc2c1C[C@@H]1NCCC[C@H]1C2 tested on Rattus norvegicus.
Result: 116.8

---

What Ki was measured for each of the following?
- target desc: 5-hydroxytryptamine receptor 1A (Rattus norvegicus)
- Sequence (P19327 whole entry): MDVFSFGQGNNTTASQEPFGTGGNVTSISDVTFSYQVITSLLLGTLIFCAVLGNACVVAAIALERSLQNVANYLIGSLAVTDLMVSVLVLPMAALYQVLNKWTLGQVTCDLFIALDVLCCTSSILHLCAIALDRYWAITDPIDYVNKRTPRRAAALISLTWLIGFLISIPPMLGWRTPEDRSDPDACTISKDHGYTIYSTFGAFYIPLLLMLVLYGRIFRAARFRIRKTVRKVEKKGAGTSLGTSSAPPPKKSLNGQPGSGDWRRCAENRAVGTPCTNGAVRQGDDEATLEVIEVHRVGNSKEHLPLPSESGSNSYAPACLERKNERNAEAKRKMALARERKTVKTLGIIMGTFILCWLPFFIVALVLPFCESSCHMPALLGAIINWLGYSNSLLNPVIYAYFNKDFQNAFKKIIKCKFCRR

Q: Answer with reported Ki of CCCN(CCC)[C@@H]1CCc2cccc(O)c2[C@H]1C (racemic)
Result: 1040 nM

Q: Answer with reported Ki of CCCN(CCC)C1(C)CCc2cccc(O)c2C1 (racemic)
Result: 1130 nM

Q: Answer with reported Ki of CCCN1CCC[C@H]2Cc3cccc(O)c3C[C@@H]21
Result: > 10000 nM

Q: Answer with reported Ki of CCCN(CCC)[C@H]1Cc2c(O)cccc2C[C@@H]1C
Result: 49.6 nM

Q: Answer with reported Ki of CCCN(CCC)C1Cc2c(O)cccc2CC1(C)C (racemic)
Result: > 10000 nM

Q: Answer with reported Ki of CCCN1CCC[C@@H]2c3c(O)cccc3CC[C@H]21
Result: 32.3 nM

Q: Answer with reported Ki of CCCN(CCC)[C@H]1Cc2c(O)cccc2C[C@@H]1C (racemic)
Result: 104 nM

Q: Answer with reported Ki of CCCN(CCC)[C@@H]1CCc2cccc(O)c2[C@@H]1C
Result: 2.08 nM

Q: Answer with reported Ki of CCCN1CCC[C@@H]2Cc3cccc(O)c3C[C@H]21
Result: 2810 nM

Q: Answer with reported Ki of CCCN(CCC)C1CCc2cccc(O)c2C1C (racemic)
Result: 2.84 nM

Q: Answer with reported Ki of CCCN(CCC)[C@@H]1Cc2c(O)cccc2C[C@H]1C
Result: 1390 nM
